system: UACC-62; experiment: NCI tumour cell line growth inhibition, 48 h
Active and inactive are the calls of the source. Cut-off read from the data, not from the text of the source: active = GI50 up to about 1.1 µM and inactive = higher.
Labels: active, inactive

compound	group.label
CCn1c2ccccc2c2nnc(NCCCO)nc21	inactive
COc1ccc2c(=O)c(O)c(-c3ccc(OC)c(OC)c3)oc2c1	inactive
Cn1c(N)c(-c2c3ccccc3nc3ccccc23)c(=O)n(C)c1=O	inactive
O=C(c1ccc2c3c(ccc(C(=O)C(F)(F)F)c13)CC2)C(F)(F)F	inactive
COc1ccc(C(=O)O[C@H]2CC[C@@]3(C)[C@@H]4CC[C@H]5[C@]6(O)C[C@H](O)[C@@]7(O)[C@@H](CN8C[C@@H](C)CC[C@H]8[C@@]7(C)O)[C@]6(O)C[C@@]53OC24O)cc1OC [VERATRIDINE]	inactive
CN(C)/N=N/c1ccc2[nH]c(=O)[nH]c2c1	inactive
Nc1nc(N)c2c3c(cnc2n1)CC(c1ccccc1)CC3 (stereo not given)	active
CC(O)C1CC1(CO)CNc1cc(Cl)nc(N)n1 (stereo not given)	inactive
N#C/C(N)=C(C#N)/N=C/Nc1ccccc1N	inactive
CCOC(=O)C(=O)Nc1nc2c(OCC)cccc2s1	inactive

// data source = ChEMBL document CHEMBL1201862
